Target: human full-length glucocorticoid receptor (Homo sapiens, UniProt P04150)
Construct: recombinantly expressed human full-length glucocorticoid receptor; purchased PanVera Co., Madison, Wis; P2816
Sequence (P04150 whole entry): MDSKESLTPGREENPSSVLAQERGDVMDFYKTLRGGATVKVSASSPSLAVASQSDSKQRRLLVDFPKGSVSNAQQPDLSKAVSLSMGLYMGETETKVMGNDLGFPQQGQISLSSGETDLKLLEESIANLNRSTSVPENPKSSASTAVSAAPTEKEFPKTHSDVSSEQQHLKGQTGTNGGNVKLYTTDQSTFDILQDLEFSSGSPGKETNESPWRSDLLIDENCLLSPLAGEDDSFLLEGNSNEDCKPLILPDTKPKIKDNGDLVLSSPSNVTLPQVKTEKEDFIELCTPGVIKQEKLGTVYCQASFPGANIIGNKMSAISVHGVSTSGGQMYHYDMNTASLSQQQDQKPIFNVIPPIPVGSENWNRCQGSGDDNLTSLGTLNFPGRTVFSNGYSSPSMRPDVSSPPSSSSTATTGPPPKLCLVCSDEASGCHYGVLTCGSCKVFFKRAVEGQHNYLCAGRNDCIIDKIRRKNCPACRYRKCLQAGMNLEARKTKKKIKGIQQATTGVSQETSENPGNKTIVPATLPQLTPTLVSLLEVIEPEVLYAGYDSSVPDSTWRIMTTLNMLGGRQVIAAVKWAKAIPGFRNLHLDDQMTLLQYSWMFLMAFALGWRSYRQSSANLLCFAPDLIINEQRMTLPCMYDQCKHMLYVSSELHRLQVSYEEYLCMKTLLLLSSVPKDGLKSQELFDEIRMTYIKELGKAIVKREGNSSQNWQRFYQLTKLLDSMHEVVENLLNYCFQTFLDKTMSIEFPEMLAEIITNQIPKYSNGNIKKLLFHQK
Test: Glucocorticoid Receptor Binding Assay (II), fluorescence polarization competitor kit
Settings: 1 h, % Relative Binding Affinity to dexamethasone, read-out: GR (% RBA* @ 10 μM) (GR Binding Assay (II)b)
Measure name: percent relative binding activity vs dexamethasone at 10 µM (%)

{"Compound": "COc1ccc(-c2ccc(C(c3ccccc3)C(C)(C)C(=O)Nc3nncs3)cn2)cc1 (stereo not shown) [Example 24]", "Result unit": "%", "Obs value": 16.3}
{"Compound": "CC(C)(C(=O)Nc1nccs1)C(c1ccccc1)c1ccc(-c2ccoc2)nc1 (stereo not shown) [Example 25]", "Result unit": "%", "Obs value": 73.4}
{"Compound": "CC(C)(C(=O)Nc1nncs1)C(c1ccc(N2CCOCC2)cc1)c1cccs1 (stereo not shown) [Example 11]", "Result unit": "%", "Obs value": 7.4}
{"Compound": "CC(C)(C(=O)Nc1nncs1)C(c1cccc(F)c1)c1ccc(N2CCOCC2)s1 (stereo not shown) [Example 9]", "Result unit": "%", "Obs value": 49.7}
